# System: NCI-H460
# experimentSummary: NCI tumour cell line growth inhibition, 48 h
The source made the active and inactive calls. Rule as the data show it: active = GI50 up to about 1.1 µM and inactive = higher.
Measured GI50 values are reported for all entries that follow.
recordedEndpoint: GI50

1) CC(=O)OC1COC(n2ccc3cc(Br)c([N+](=O)[O-])cc32)C(OC(C)=O)C1OC(C)=O (centres undefined)	22 µM (inactive)
2) CN1CCc2cc3c4cc2C1Cc1ccc(cc1)Oc1cc(ccc1O)CC1c2c(cc(O)c(c2O4)O3)CCN1C (centres undefined)	1.87 µM (inactive)
3) O=C1/C(=C/c2ccccc2)CCCC/C1=C\c1ccccc1	51.3 µM (inactive)
4) Cc1cccc2c1C(=O)[C@@](C)([C@]1(C)Nc3cccc(C)c3C1=O)N2	> 100 µM (inactive)
5) COC(=O)C1CCCC2(C1)OCCO2 (centres undefined)	> 100 µM (inactive)
6) OCCCCCNc1nc(O)c2[nH]cnc2n1	> 100 µM (inactive)
7) CCOC(=O)/C(C(N)=O)=C(/O)c1cnccn1	> 100 µM (inactive)
8) O=C1COc2ccc([N+](=O)[O-])cc2C(=O)C1	> 10 µM (inactive)
9) Nc1ccc([As](=O)(O)O)cc1	> 100 µM (inactive)
10) O=[N+]([O-])c1ccc2nc(O)c(/C=C(\O)c3ccccc3)nc2c1	3.83 µM (inactive)
11) Cc1ccccc1C(C#N)C(=O)C(=O)Nc1cccc(Cl)c1 (centres undefined)	61.5 µM (inactive)
12) CCN(CC)CCCNC(=O)c1ccc([N+](=O)[O-])cc1O	> 100 µM (inactive)
13) CCC/C(Cl)=N\OC(=O)Nc1cccc(C(F)(F)F)c1	19.4 µM (inactive)
14) COC1CC(O)C(OC(=O)c2ccccc2)C(C)O1 (centres undefined)	> 100 µM (inactive)
15) COC(=O)c1nn(C(=N)c2ccc(Cl)cc2)c2c1CCC2	> 100 µM (inactive)
16) CC1=Nc2c(ccc3c2C(=O)c2ccccc2C3=O)NC(c2ccncc2)C1 (centres undefined)	> 10 µM (inactive)
17) Cc1cccc(/N=N/C(=O)NNc2cccc(C)c2C)c1C	38.5 µM (inactive)
18) CSc1nc(C)cc(Nc2ccc(O)c(CN3CCOCC3)c2)n1	> 100 µM (inactive)
19) NCCCNOCCCN	> 100 µM (inactive)
20) Cc1ccc(Nc2nc3[nH]ccc3c(=O)[nH]2)cc1	> 100 µM (inactive)
21) OCCN1CN(c2nc(N3CN(CCO)C3)nc(N3CN(CCO)C3)n2)C1	19.5 µM (inactive)
22) CN/C(=N\CCSCc1nc[nH]c1C)NC#N	> 100 µM (inactive)
23) CC(=O)c1ccc(/N=N/c2ccc3nonc3c2N)cc1	> 100 µM (inactive)
24) CC(=O)C1=CC=C/C1=N\Nc1ccccc1	11.6 µM (inactive)
